# test target: Glucagon-like peptide 1 receptor (Homo sapiens) (UniProt P43220)
# Sequence (P43220 whole entry, looked up): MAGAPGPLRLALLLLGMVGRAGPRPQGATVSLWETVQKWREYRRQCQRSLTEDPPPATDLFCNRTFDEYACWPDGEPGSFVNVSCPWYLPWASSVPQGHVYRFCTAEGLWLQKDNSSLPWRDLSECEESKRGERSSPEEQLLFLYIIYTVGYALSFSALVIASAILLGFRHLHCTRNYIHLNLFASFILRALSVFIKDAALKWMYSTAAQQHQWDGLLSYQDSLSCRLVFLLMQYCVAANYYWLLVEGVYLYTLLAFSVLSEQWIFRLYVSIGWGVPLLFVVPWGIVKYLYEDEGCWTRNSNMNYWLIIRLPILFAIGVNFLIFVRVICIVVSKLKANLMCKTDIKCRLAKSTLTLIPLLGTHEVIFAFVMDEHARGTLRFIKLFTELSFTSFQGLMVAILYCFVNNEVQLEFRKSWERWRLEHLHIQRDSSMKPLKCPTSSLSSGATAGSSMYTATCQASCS
# test: qHTS of GLP-1 Receptor Agonists: Hit Validation
# stated conditions: HEK293 GLP-1R, cAMP-response luciferase, 4-6 h; series mostly up to 46.1 µM
About 25 (2%) of roughly 1,300 compounds were called active. Roughly 9% stayed inconclusive and do not appear here. The call rests on the fitted dose curve; in most records, active means well fitted activation curve with a large enough effect; inconclusive means small, poorly fitted or top-dose-only effect; inactive means flat fitted curve, though single readings scatter. This is one part of a sample in which actives are shown more often than they occur.
Please answer using one outcome listed in yes for active, no for inactive

**Query** What outcome does the record of this test show for "O=c1c2c3c(sc2nc(NCCO)n1Cc1ccco1)CCCCC3" ?
**Result** no

**Query** Call for entry "COCCCNC(=S)N/N=C/c1ccc2ccccc2c1" :
**Result** no

**Query** Would you mind telling me which call this test gave COC(=O)c1ccc(OCC2c3cc(OC)c(OC)cc3CCN2C(C)=O)cc1 (configuration not stated) ?
**Result** no

**Query** Give the logged outcome of this assay for the following compound: "COc1ccccc1Nc1cc(C(=O)NCc2cccnc2)c2ccccc2n1"
**Result** no

**Query** // outcome(item) with item = "Cc1cccc(-c2nnc3sc(-c4ccccc4C)nn23)c1"
**Result** no

**Query** Please let me know the test result on file for "COc1ccc(CCN(C)C(=O)CCc2nnc(-c3ccccc3)o2)cc1OC" .
**Result** no

**Query** Recorded call for "C/C(=N\Nc1nc2ccccc2[nH]1)c1ccc(C)o1" ?
**Result** no

**Query** Please indicate how the test categorized "O=C(NC1CCCCCC1)C(=O)NC1CC1" .
**Result** no

**Query** Given "COc1ccc(N/C=C/C(=O)c2ccc(OC)c(OC)c2)cc1" , state the outcome it received in this test.
**Result** no

**Query** // param item: "C=C[C@@]1(C)CC(=O)[C@]2(O)[C@@]3(C)[C@@H](O)CCC(C)(C)[C@@H]3[C@H](OC(C)=O)[C@H](O)[C@@]2(C)O1" ; yields the recorded call
**Result** yes

**Query** Would you mind telling me which call this test gave "COCc1cc(C)nc2sc(C(=O)OC(C)C)c(N)c12" ?
**Result** no

**Query** Test call, this compound: Cc1cc(C)nc(N2CCCC(C(=O)Nc3ccc4nc(C)c(C)nc4c3)C2)n1 (configuration not stated)
**Result** no
